study system: T1, MGME1 (Homo sapiens, UniProt Q9BQP7 21-344)
T1 sequence: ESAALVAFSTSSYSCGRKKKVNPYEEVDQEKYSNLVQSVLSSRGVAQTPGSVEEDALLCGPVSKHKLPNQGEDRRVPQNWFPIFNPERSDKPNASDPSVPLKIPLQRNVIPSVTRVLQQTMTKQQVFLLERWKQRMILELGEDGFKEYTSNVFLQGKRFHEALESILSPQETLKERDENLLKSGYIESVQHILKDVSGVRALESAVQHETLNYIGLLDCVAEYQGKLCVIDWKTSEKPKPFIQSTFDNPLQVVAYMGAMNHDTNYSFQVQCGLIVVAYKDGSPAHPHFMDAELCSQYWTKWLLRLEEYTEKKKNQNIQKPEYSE
measurement description: fluorescence polarization; 10 mM EDTA; FP: 2 nM FAM-ssDNA, 20 mM Hepes pH 8.0 (at 37 C), 100 mM NaCl, 0.1 mg/ml BSA, 1 mM DTT, 10 mM EDTA, mixed at room temperature, 15 min; EMSA: 1 uM ssDNA, 20 mM Hepes pH 8.0, 100 mM NaCl, 1 mM DTT, 10 mM EDTA, room temperature 15 min, gel 0.35x TBE at 4 C
condition label: protein: recombinant; tags: His-SUMO tag removed by Ulp1; label: 3'-6FAM; single strand
Values of Kd strictly less than 300 nM map to condition met, and values of at least 300 nM map to condition not met.

The following binders have reported results that may help.
INSERT INTO assay_data (binder, qualitative_label) VALUES
  ('TTTTTTTTTT (ssDNA) [T10(3'')]', 'condition not met'),
  ('TTTTTTTTTTTTTTTTTTTT (ssDNA, 5''-phosphate) [T20(3'')-5''p]', 'condition met'),
  ('TTTTTTTTTT (ssDNA, 5''-phosphate) [T10(3'')-5''p]', 'condition not met'),
  ('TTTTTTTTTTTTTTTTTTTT (ssDNA) [T20(3'')]', 'condition not met');

Could you please tell me whether Kd recorded for TTTTTTTTTT (ssDNA, 5'-phosphate-tetrahydrofuran (abasic) before T10) [T10(3')-5'dSp] is less than 300 nM?
condition not met
